These entries and their values trace back to ChEMBL document CHEMBL4673401.

Measured AUC at 24 h, listed per entry.
- Experiment Summary: AUC in Sprague-Dawley rat at 3 mg/kg, po measured up to 24 hrs
- Type: ADME, organism-based
- Set-up: route oral, dose 3 mg/kg, time <=24
- Test Context: in vivo
Note: unit ng·h/mL is implicit; provide only the numeric part.

What measured AUC at 24 h goes with NS(=O)(=O)NCCNc1nonc1C(=NO)Nc1ccc(F)c(Br)c1 ?
807

Next up: Cn1cc(-c2ccc(NC(=O)N3CCC(C(=O)/C(=N/O)Nc4ccc(F)c(Br)c4)CC3)cc2)cn1
1030

Follow-up item: NS(=O)(=O)N1CCC(C(=O)/C(=N/O)Nc2ccc(F)c(Br)c2)CC1
1530

* * *

clearance values, listed per item
- Experiment Summary: Clearance in C57BL/6 mouse at 3 mg/kg, po measured up to 24 hrs
- Assay type: ADME, organism-based
- Test Context: in vivo
Number only, in mL/min/kg; omit the unit.

Item under review: NS(=O)(=O)NCCNc1nonc1C(=NO)Nc1ccc(F)c(Br)c1 . Reported clearance?
49.2

Attention now turns to another entry.
Can you look up the measured clearance of NS(=O)(=O)N1CCC(C(=O)/C(=N/O)Nc2ccc(F)c(Br)c2)CC1 for me?
61.2

* * *

- Target Under Test: Cytochrome P450 2C19 (Homo sapiens, UniProt P33261)
- Sequence (P33261 whole entry): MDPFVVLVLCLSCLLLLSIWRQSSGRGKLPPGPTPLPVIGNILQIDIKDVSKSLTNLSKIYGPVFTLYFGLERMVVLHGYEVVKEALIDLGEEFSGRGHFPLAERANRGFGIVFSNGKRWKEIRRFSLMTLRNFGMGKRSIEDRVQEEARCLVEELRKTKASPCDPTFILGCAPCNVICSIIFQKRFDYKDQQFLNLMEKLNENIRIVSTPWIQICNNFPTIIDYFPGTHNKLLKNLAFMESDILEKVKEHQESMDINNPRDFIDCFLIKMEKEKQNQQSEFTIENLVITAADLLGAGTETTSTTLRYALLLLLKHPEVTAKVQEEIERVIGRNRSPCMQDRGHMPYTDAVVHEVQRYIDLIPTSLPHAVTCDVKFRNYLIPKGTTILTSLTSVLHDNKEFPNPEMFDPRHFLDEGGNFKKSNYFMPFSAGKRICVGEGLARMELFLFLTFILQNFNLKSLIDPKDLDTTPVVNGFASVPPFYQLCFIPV
pIC50: −log10 of the molar value.
Value Kind: pIC50

Form field: pIC50 recorded for NS(=O)(=O)NCCNc1nonc1C(=NO)Nc1ccc(F)c(Br)c1 with Cytochrome P450 2C19 (Homo sapiens, UniProt P33261) (enter value)
< 5.00

* * *

- Experiment Summary: Oral bioavailability in Beagle dog at 2 mg/kg measured up to 24 hrs
- Type: ADME, organism-based, Canis lupus familiaris
- Test Context: in vivo
Reported bioavailability values are given for each entry in this list.
Numbers only; they are read as %.

Given NS(=O)(=O)NCCNc1nonc1C(=NO)Nc1ccc(F)c(Br)c1 , state its recorded bioavailability.
50

Further cases:
Entry NS(=O)(=O)N1CCC(C(=O)/C(=N/O)Nc2ccc(F)c(Br)c2)CC1 has what bioavailability?
102

* * *

- Experiment Summary: Protein binding in rat plasma by rapid equilibrium dialysis method
- Format: ADME, cell-free
- Test Context: read-out: PPB (converted)
Value Kind: fraction unbound
// print number alone

Look at this molecule and give its reported fraction unbound. NS(=O)(=O)NCCNc1nonc1C(=NO)Nc1ccc(F)c(Br)c1
0.03

Next up:
Name the reported fraction unbound value associated with the molecule NS(=O)(=O)N1CCC(C(=O)/C(=N/O)Nc2ccc(F)c(Br)c2)CC1
0.076

* * *

- Experiment Summary: AUC in C57BL/6 mouse at 3 mg/kg, po measured up to 24 hrs
- Type: ADME, organism-based
- Set-up: route oral, dose 3 mg/kg, time <=24
- Test Context: in vivo
Value Kind: AUC at 24 h (µg·h/mL)
Number only, in µg·h/mL; omit the unit.

Given the entry NS(=O)(=O)NCCNc1nonc1C(=NO)Nc1ccc(F)c(Br)c1 [EPACADOSTAT] , report its measured AUC at 24 h.
1.02

Now, please, on to the next compound.
Returns the measured AUC at 24 h for the input compound. Input: NS(=O)(=O)N1CCC(C(=O)/C(=N/O)Nc2ccc(F)c(Br)c2)CC1
0.358

* * *

- Experiment Summary: Protein binding in human plasma by rapid equilibrium dialysis method
- Type: ADME, cell-free
- Test Context: read-out: PPB (converted)
Value Kind: fraction unbound
The response must contain the number and no unit.

# input compound: NS(=O)(=O)NCCNc1nonc1C(=NO)Nc1ccc(F)c(Br)c1 ; wanted: its fraction unbound
0.015

Turning now to a further compound:
Tell me the measured fraction unbound of NS(=O)(=O)N1CCC(C(=O)/C(=N/O)Nc2ccc(F)c(Br)c2)CC1 , please.
0.036

* * *

Listed next: entries and their corresponding IC50.
- Target Under Test: Indoleamine 2,3-dioxygenase 1 (Homo sapiens)
- Sequence (P14902 whole entry): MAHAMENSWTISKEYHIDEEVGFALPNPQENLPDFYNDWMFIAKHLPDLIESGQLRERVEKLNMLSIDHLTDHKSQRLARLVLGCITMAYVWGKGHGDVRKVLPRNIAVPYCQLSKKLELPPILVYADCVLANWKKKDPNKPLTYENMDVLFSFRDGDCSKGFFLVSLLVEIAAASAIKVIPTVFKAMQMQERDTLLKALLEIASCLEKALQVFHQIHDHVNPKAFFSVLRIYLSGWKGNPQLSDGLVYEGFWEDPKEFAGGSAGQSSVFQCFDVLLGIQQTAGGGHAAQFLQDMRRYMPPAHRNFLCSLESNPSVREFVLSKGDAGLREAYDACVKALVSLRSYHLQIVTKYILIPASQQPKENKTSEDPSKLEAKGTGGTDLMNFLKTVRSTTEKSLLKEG
- Experiment Summary: Inhibition of IDO1 in IFNgamma-stimulated human HeLa cells using L-tryptophan as substrate measured after 48 hrs
Numeric only. Scale: nM

These recorded examples may help you get a feel for the data.
Bench note: what IC50 did NS(=O)(=O)NC[C@H]1CC[C@H](C(=O)/C(=N/O)Nc2ccc(F)c(Br)c2)CC1 show?
21

Try the molecule O=C(/C(=N/O)Nc1ccc(F)c(Br)c1)C1CCN(C(=O)Nc2ccccc2)CC1
54

Continuing:
Endpoint output: IC50 of O=C(/C(=N/O)Nc1ccc(F)c(Br)c1)c1ccco1 . Value?
1680

What do you get for O=C(/C(=N/O)Nc1ccc(F)c(Br)c1)[C@H]1CC[C@H](NS(=O)(=O)Nc2ccccc2)CC1 ?
291

Let us now turn to O=C(/C(=N/O)Nc1ccc(F)c(Br)c1)C1CCN(S(=O)(=O)Nc2ccccc2)CC1
150

What about Cn1cc(-c2ccc(NC(=O)N3CCC(C(=O)/C(=N/O)Nc4ccc(F)c(Br)c4)CC3)cc2)cn1 ?
15

Try O=C(/C(=N/O)Nc1ccc(F)c(Br)c1)C1CCN(C(=O)c2ccccc2)CC1 next.
281

What about this molecule? O=C(/C(=N/O)Nc1ccc(F)c(Br)c1)C1CCN(S(=O)(=O)NCc2ccccc2)CC1
262

* * *

# Cmax per entry
- Experiment Summary: Cmax in Sprague-Dawley rat at 3 mg/kg, po measured up to 24 hrs
- Type: ADME, organism-based
- Parameters: route oral, dose 3 mg/kg, time <=24
- Test Context: in vivo
Your answer is read as ng/mL, so omit the unit and give the number.

// known answers, use as guide
Name the recorded Cmax for NS(=O)(=O)N1CCC(C(=O)/C(=N/O)Nc2ccc(F)c(Br)c2)CC1 .
179

Query NS(=O)(=O)NCCNc1nonc1C(=NO)Nc1ccc(F)c(Br)c1 next
133

Now for a further compound.
Need Cmax, item Cn1cc(-c2ccc(NC(=O)N3CCC(C(=O)/C(=N/O)Nc4ccc(F)c(Br)c4)CC3)cc2)cn1
173

* * *

# IC50 per entry for Tryptophan 2,3-dioxygenase (Homo sapiens, UniProt P48775)
Please state the figure in µM; there is no need to write the unit.

# count of solved cases: 2
Need IC50 of O=C(/C(=N/O)Nc1ccc(F)c(Br)c1)c1ccccc1 , thanks.
80

Next up: O=C(/C(=N/O)Nc1ccc(F)c(Br)c1)C1CCCCC1
79.3

Others:
What value of IC50 has been recorded for this entry: NS(=O)(=O)N1CCC(C(=O)/C(=N/O)Nc2ccc(F)c(Br)c2)CC1
62.5

* * *

Parameter AUC at 24 h: see the listing below.
- Experiment Summary: AUC in Beagle dog at 2 mg/kg, po measured up to 24 hrs
- Assay type: ADME, organism-based, Canis lupus familiaris
- Parameters: route oral, dose 2 mg/kg, time <=24
- Test Context: in vivo
// return numeric value only (unit: ng·h/mL, not printed)

Requested field: AUC at 24 h. Item: NS(=O)(=O)NCCNc1nonc1C(=NO)Nc1ccc(F)c(Br)c1
676

// next record NS(=O)(=O)N1CCC(C(=O)/C(=N/O)Nc2ccc(F)c(Br)c2)CC1
3630

Attention now shifts to the item below.
Give its AUC at 24 h value. Item: Cn1cc(-c2ccc(NC(=O)N3CCC(C(=O)/C(=N/O)Nc4ccc(F)c(Br)c4)CC3)cc2)cn1
255

* * *

- Experiment Summary: Oral bioavailability in Sprague-Dawley rat at 3 mg/kg measured up to 24 hrs
- Type: ADME, organism-based
- Test Context: in vivo
Below, each entry is listed with its recorded bioavailability.
Field format: number, assumed %, no unit text.

Which bioavailability reading was recorded for the compound NS(=O)(=O)NCCNc1nonc1C(=NO)Nc1ccc(F)c(Br)c1 ?
55

Next:
Would you mind telling me what bioavailability value was observed for NS(=O)(=O)N1CCC(C(=O)/C(=N/O)Nc2ccc(F)c(Br)c2)CC1 ?
58.8

* * *

- Experiment Summary: Cmax in Beagle dog at 2 mg/kg, po measured up to 24 hrs
- Type: ADME, organism-based, Canis lupus familiaris
- Set-up: route oral, dose 2 mg/kg, time <=24
- Test Context: in vivo
Value Kind: Cmax (ng/mL)
Give just the numeric value; ng/mL need not be written.

Which Cmax value is on record for NS(=O)(=O)N1CCC(C(=O)/C(=N/O)Nc2ccc(F)c(Br)c2)CC1 ?
742

Further cases:
For Cn1cc(-c2ccc(NC(=O)N3CCC(C(=O)/C(=N/O)Nc4ccc(F)c(Br)c4)CC3)cc2)cn1 , what is its reported Cmax?
140

Cool, now NS(=O)(=O)NCCNc1nonc1C(=NO)Nc1ccc(F)c(Br)c1 [EPACADOSTAT]
245

* * *

Listed here are compounds together with their documented pIC50.
- Target Under Test: Tryptophan 2,3-dioxygenase (Homo sapiens)
- Sequence (P48775 whole entry): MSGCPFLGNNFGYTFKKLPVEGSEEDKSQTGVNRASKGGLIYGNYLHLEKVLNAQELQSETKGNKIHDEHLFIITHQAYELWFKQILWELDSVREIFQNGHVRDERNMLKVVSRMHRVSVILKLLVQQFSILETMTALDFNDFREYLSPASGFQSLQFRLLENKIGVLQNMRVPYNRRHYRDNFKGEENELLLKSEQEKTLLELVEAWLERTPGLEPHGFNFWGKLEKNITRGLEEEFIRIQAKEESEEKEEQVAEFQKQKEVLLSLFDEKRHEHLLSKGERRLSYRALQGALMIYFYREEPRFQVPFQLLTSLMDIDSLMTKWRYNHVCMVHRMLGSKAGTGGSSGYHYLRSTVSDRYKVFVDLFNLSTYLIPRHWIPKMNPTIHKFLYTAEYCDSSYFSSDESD
Quick note: pIC50 means taking -log10 of the concentration in moles per liter.

Could you tell me which pIC50 is on file for O=C(/C(=N/O)Nc1ccc(F)c(Br)c1)C1CCN(C(=O)Nc2ccccc2)CC1 ?
4.24

Now look at this entry.
So what's the measured pIC50 for this one? O=C(/C(=N/O)Nc1ccc(F)c(Br)c1)c1cccs1
4.20
